# Tested Target: Cytochrome P450 3A4 (Homo sapiens) (UniProt P08684)
# Sequence (P08684 whole entry, looked up): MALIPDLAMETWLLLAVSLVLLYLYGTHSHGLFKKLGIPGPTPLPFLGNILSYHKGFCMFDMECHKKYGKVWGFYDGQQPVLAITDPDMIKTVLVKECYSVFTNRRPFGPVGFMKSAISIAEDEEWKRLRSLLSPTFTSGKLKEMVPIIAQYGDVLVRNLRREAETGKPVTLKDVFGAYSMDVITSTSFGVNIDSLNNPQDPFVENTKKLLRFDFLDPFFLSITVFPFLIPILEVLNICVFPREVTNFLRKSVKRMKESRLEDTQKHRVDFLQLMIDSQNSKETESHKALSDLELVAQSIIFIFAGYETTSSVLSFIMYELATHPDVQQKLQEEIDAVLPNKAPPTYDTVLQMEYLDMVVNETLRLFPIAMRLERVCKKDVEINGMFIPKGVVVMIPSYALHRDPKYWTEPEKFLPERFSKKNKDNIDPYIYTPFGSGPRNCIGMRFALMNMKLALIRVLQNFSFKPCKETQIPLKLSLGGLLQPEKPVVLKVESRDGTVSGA
# Assay Details: Cytochrome panel assay with activity outcomes
# Test Conditions: recombinant CYP, pro-luciferin dealkylation, luminescence, p450-cyp3a4; series mostly up to 57.1 µM
Out of some 16,000 compounds screened, about 5,100 (32%) were called active. Another 25% or so got no clear call; they are omitted. Some of the results follow.
Recorded Metric: AC50

Solved cases (8 shown):
Give its AC50 value. Item: COc1ccc(OC)c(NC(=O)C(CC(=O)O)NCc2ccco2)c1 (stereo unspecified)
inactive

Give its AC50 value. Item: Clc1ccc(-n2nnnc2CN2CCOCC2)cc1
inactive

Give its AC50 value. Item: CC1CCN(C(=O)C2CCN(S(=O)(=O)c3cccc4nonc34)CC2)CC1
inactive

Give its AC50 value. Item: Nc1nc(CSc2nnnn2-c2ccc(Cl)cc2)nc(N2CCOCC2)n1
3.98 µM (active)

Give its AC50 value. Item: Cc1cc(NC(=O)c2cccc(F)c2)no1
inactive

Give its AC50 value. Item: O=C(Cc1ccccc1)NC1CCN(S(=O)(=O)c2ccc(C(=O)O)cc2)CC1
inactive

Give its AC50 value. Item: Nc1nc2c(c(=O)[nH]1)N(C=O)[C@H](CNc1ccc(C(=O)N[C@@H](CCC(=O)O)C(=O)O)cc1)CN2
inactive

Give its AC50 value. Item: O=C(NCc1ccccc1)c1ccc(S(=O)(=O)N2CCCc3ccccc32)cc1
10 µM (active)

Further cases:
Give its AC50 value. Item: C[C@@]1(O)CCOC(=O)C1
inactive

Give its AC50 value. Item: Cc1cc(NC(=O)COC(=O)c2ccc(NS(=O)(=O)c3ccc(C)c(C)c3)cc2)no1
5.01 µM (active)

Give its AC50 value. Item: Cc1cc2[nH]c(=O)c3ccccc3n2n1
inactive
